Values from the supplement of paper PMC12350171

system: S. enterica typhimurium WT; assay: growth AUC normalised to DMSO control (median) (fraction of control); higher = less growth inhibition, active = hit call of the paper; settings: 20 µM;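 active = normalised median growth AUC below 0.1 of DMSO control; inactive = AUC 0.1 or higher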;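 further: active when median AUC fell below 0.1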
Structures can show the parent of a compound that is named as a salt.
Please state which outcome applies, choosing from Y = active, N = inactive

Solved entries:
Compound	Cat
Cc1c(N(C)CS(=O)(=O)O)c(=O)n(-c2ccccc2)n1C [Dipyrone sodium salt]	N
N[C@@H](C(=O)N[C@@H]1C(=O)N2C(C(=O)O)=C(Cl)CC[C@H]12)c1ccccc1 [Loracarbef]	Y
CCN(CC)CCOC(=O)C(c1ccccc1)c1ccccc1 [Adiphenine hydrochloride]	N
CCc1c(C)[nH]c2c1C(=O)C(CN1CCOCC1)CC2 (stereo not given) [Molindone hydrochloride]	N
NS(=O)(=O)c1cc(C(=O)O)c(NCc2ccco2)cc1Cl [Furosemide]	N

Prompt: Dear all, I need the recorded test outcome for COc1ccc2[nH]c([S+]([O-])Cc3ncc(C)c(OC)c3C)nc2c1 (stereo not given) [Omeprazole] , thank you.
Response: N

Prompt: Tell me the assay call for Cc1cc(C2CCCCC2)n(O)c(=O)c1 [Ciclopirox ethanolamine] please.
Response: N

Prompt: Hi, do you know how O=C1CN2Cc3c(ccc(Cl)c3Cl)N=C2N1 [Anagrelide] came out in this test?
Response: N

Prompt: // outcome(item) with item = O=C1NCC2(CCN(CCc3ccccc3)CC2)O1 [Fenspiride hydrochloride]
Response: N

Prompt: Identify the outcome logged in this assay for the compound shown: CCC(=O)OCC(=O)[C@@]1(OC(=O)CC)[C@@H](C)C[C@H]2[C@@H]3CCC4=CC(=O)C=C[C@]4(C)[C@@]3(Cl)[C@@H](O)C[C@@]21C [Beclomethasone dipropionate]
Response: N

Prompt: Status in this test for COC(=O)[C@H]1[C@H]2C[C@@H]3c4[nH]c5cc(OC)ccc5c4CCN3C[C@H]2C[C@@H](OC(=O)c2cc(OC)c(OC)c(OC)c2)[C@@H]1OC [Reserpine] ?
Response: N

Prompt: Just curious, what result did CC(=O)N(CC(C)C(=O)O)c1c(I)cc(I)c(N)c1I (stereo not given) [Iocetamic acid] get here?
Response: N

Prompt: Which outcome did this test record for the compound Cc1onc(-c2c(Cl)cccc2Cl)c1C(=O)N[C@@H]1C(=O)N2[C@@H]1SC(C)(C)[C@@H]2C(=O)O [Dicloxacillin sodium salt hydrate] ?
Response: N

Prompt: Assay result, entry Cc1cc(C(C)(C)CC(C)(C)C)ccc1OCCOCC[N+](C)(C)Cc1ccccc1 [Methyl benzethonium chloride] — outcome?
Response: N

Prompt: Outcome? CC(=O)OCC(=O)[C@@]1(O)CC[C@H]2[C@@H]3CCC4=CC(=O)C=C[C@]4(C)[C@@]3(Cl)[C@@H](Cl)C[C@@]21C [Dichlorisone acetate]
Response: N
